# measured-target: Peroxisome proliferator-activated receptor gamma (Homo sapiens)
# assay-notes: qHTS assay for small molecule agonists of peroxisome proliferator-activated receptor gamma signaling (AID 588536)
# condition-context: HEK293 PPARg-UAS-bla, beta-lactamase ratio, 16 h, percent of rosiglitazone response, DMSO as zero; series mostly up to 76.7 µM
Records with an inconclusive call do not appear. Calls of active or inactive are those of the source. The call rests on the fitted dose curve; in most records, active means well fitted curve in the direction sought with a large enough effect in the signal ratio, with a control signal flat (not every such curve was filed as active); inconclusive means small, poorly fitted or top-dose-only effect, or effect the other way, or a change in a side signal; inactive means no such curve, though single readings can be large or run the other way; the % refers to the signal ratio.
reported-endpoint: outcome

compound=CC(C)(C)OO result=inactive
compound=ClC(Cl)=C(Cl)C(Cl)=C(Cl)Cl result=inactive
compound="C1CCC2CCCCC2C1 (stereo unspecified)" result=inactive
compound=Oc1ccc(Cl)cc1Cl result=inactive
compound=C[N+](C)(C)Cc1ccccc1 result=inactive
compound=CCCCCCCCCc1ccc(O)cc1 result=inactive
compound=c1ccc(-c2ccccc2)cc1 result=inactive
compound=Clc1ccc2ccccc2c1 result=inactive
compound="OCC(Br)CBr (stereo unspecified)" result=inactive
compound=O=C=NC1CCCCC1 result=inactive
compound=c1nc[nH]n1 result=inactive
compound=Cc1ccc2ccccc2c1 result=inactive
compound=COC(=O)NC(=S)Nc1ccccc1NC(=S)NC(=O)OC result=inactive
compound=O=[N+]([O-])c1cccc2ccccc12 result=inactive
compound="CC(COc1ccc(Oc2ccccc2)cc1)Oc1ccccn1 (stereo unspecified)" result=inactive
compound=ClC(Cl)=C(c1ccc(Cl)cc1)c1ccc(Cl)cc1 result=inactive

----------
# measured-target: Peroxisome proliferator-activated receptor delta (Homo sapiens) (UniProt Q03181)
# Sequence (Q03181 whole entry, looked up): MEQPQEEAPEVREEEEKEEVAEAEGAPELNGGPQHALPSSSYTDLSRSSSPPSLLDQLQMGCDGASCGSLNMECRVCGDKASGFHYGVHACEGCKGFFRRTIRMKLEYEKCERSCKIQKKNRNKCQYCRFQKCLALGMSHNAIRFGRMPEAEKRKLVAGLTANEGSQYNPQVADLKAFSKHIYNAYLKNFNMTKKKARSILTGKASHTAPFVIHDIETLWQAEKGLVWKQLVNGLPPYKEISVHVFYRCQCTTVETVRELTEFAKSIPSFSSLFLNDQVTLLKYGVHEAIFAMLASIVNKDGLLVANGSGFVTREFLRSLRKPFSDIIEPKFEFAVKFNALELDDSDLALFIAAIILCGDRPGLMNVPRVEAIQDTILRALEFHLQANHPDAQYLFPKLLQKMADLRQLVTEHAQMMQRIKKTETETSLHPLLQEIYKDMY
# assay-notes: qHTS assay for small molecule antagonists of peroxisome proliferator-activated receptor delta signaling (AID 588535)
# condition-context: HEK293T PPARd-UAS-bla, beta-lactamase FRET ratio, 18 h; series mostly up to 76.7 µM
Records with an inconclusive call do not appear. The source made the active and inactive calls. Calls follow the shape of the dose curve; as a rule, active = well fitted inhibition curve with a large enough effect in the signal ratio, with a control signal flat (not every such curve was filed as active); inconclusive = small, poorly fitted or top-dose-only effect, or effect the other way, or a change in a side signal; inactive = no such curve, though single readings can be large or run the other way; the % refers to the signal ratio.
Labels: active, inactive

compound=Cc1ccc([N+](=O)[O-])cc1C measured_target="Peroxisome proliferator-activated receptor delta (Homo sapiens) (UniProt Q03181)" label_class=inactive
compound=COC1=CC(=O)O[C@@H](/C=C/c2ccc3c(c2)OCO3)C1 measured_target="Peroxisome proliferator-activated receptor delta (Homo sapiens) (UniProt Q03181)" label_class=inactive
compound=C=C(Cl)Cl measured_target="Peroxisome proliferator-activated receptor delta (Homo sapiens) (UniProt Q03181)" label_class=inactive
compound=CC(C)(c1ccccc1)c1ccc(O)cc1 measured_target="Peroxisome proliferator-activated receptor delta (Homo sapiens) (UniProt Q03181)" label_class=inactive
compound="OCC(Br)CBr (stereo unspecified)" measured_target="Peroxisome proliferator-activated receptor delta (Homo sapiens) (UniProt Q03181)" label_class=inactive
compound=CC(C)Nc1nc(Cl)nc(NC(C)C)n1 measured_target="Peroxisome proliferator-activated receptor delta (Homo sapiens) (UniProt Q03181)" label_class=inactive
compound=Clc1nc(Cl)nc(Cl)n1 measured_target="Peroxisome proliferator-activated receptor delta (Homo sapiens) (UniProt Q03181)" label_class=inactive
compound=CNC(=O)Oc1ccccc1OC(C)C measured_target="Peroxisome proliferator-activated receptor delta (Homo sapiens) (UniProt Q03181)" label_class=inactive
compound=N#Cc1c(Cl)cccc1Cl measured_target="Peroxisome proliferator-activated receptor delta (Homo sapiens) (UniProt Q03181)" label_class=inactive
compound=ClC(Cl)(Cl)c1ccccc1 measured_target="Peroxisome proliferator-activated receptor delta (Homo sapiens) (UniProt Q03181)" label_class=inactive
compound="CC(C)(C)C(=O)C(Oc1ccc(Cl)cc1)n1cncn1 (stereo unspecified)" measured_target="Peroxisome proliferator-activated receptor delta (Homo sapiens) (UniProt Q03181)" label_class=inactive
compound=CCCCSP(=O)(SCCCC)SCCCC measured_target="Peroxisome proliferator-activated receptor delta (Homo sapiens) (UniProt Q03181)" label_class=inactive
compound=Cc1ccc(O)c(C)c1 measured_target="Peroxisome proliferator-activated receptor delta (Homo sapiens) (UniProt Q03181)" label_class=inactive
compound=CCCOC(=O)c1ccccc1C(=O)OCCC measured_target="Peroxisome proliferator-activated receptor delta (Homo sapiens) (UniProt Q03181)" label_class=inactive
compound=CCOP(=S)(OCC)Oc1ccc([N+](=O)[O-])cc1 measured_target="Peroxisome proliferator-activated receptor delta (Homo sapiens) (UniProt Q03181)" label_class=inactive
compound=BrCCBr measured_target="Peroxisome proliferator-activated receptor delta (Homo sapiens) (UniProt Q03181)" label_class=inactive
compound=CC(C)(C)OO measured_target="Peroxisome proliferator-activated receptor delta (Homo sapiens) (UniProt Q03181)" label_class=inactive
compound=Cc1ccc2ccccc2c1 measured_target="Peroxisome proliferator-activated receptor delta (Homo sapiens) (UniProt Q03181)" label_class=inactive
compound="C=C(C)C(=O)OCC1CO1 (stereo unspecified)" measured_target="Peroxisome proliferator-activated receptor delta (Homo sapiens) (UniProt Q03181)" label_class=inactive
compound=c1ccc(-c2ccccc2)cc1 measured_target="Peroxisome proliferator-activated receptor delta (Homo sapiens) (UniProt Q03181)" label_class=inactive
compound=ClCBr measured_target="Peroxisome proliferator-activated receptor delta (Homo sapiens) (UniProt Q03181)" label_class=inactive
compound=Cc1ccccc1N measured_target="Peroxisome proliferator-activated receptor delta (Homo sapiens) (UniProt Q03181)" label_class=inactive
compound=O=C1C(Cl)=C(Cl)C(=O)C(Cl)=C1Cl measured_target="Peroxisome proliferator-activated receptor delta (Homo sapiens) (UniProt Q03181)" label_class=active
compound=C=CC(C)=O measured_target="Peroxisome proliferator-activated receptor delta (Homo sapiens) (UniProt Q03181)" label_class=inactive
compound=COC(=O)NC(=S)Nc1ccccc1NC(=S)NC(=O)OC measured_target="Peroxisome proliferator-activated receptor delta (Homo sapiens) (UniProt Q03181)" label_class=inactive
compound=CNC(=O)CSP(=S)(OC)OC measured_target="Peroxisome proliferator-activated receptor delta (Homo sapiens) (UniProt Q03181)" label_class=inactive
compound="CC(O)CCl (stereo unspecified)" measured_target="Peroxisome proliferator-activated receptor delta (Homo sapiens) (UniProt Q03181)" label_class=inactive
compound=O=NN(c1ccccc1)c1ccccc1 measured_target="Peroxisome proliferator-activated receptor delta (Homo sapiens) (UniProt Q03181)" label_class=inactive
compound=C=CCc1ccc(OC)cc1 measured_target="Peroxisome proliferator-activated receptor delta (Homo sapiens) (UniProt Q03181)" label_class=inactive
compound=CCCCCCCCCc1ccc(O)cc1 measured_target="Peroxisome proliferator-activated receptor delta (Homo sapiens) (UniProt Q03181)" label_class=inactive
compound=NC(=S)Nc1ccccc1 measured_target="Peroxisome proliferator-activated receptor delta (Homo sapiens) (UniProt Q03181)" label_class=inactive

These measurements were taken from PubChem BioAssay (NCATS).
